# System: normal cells
# protocol.summary: Survival rate of normal cells after test compound is added (flow cytometry, Annexin V-FITC/PI)
# Assay type: cell-based
# conditions: 18 h, 20.0 μM, read-out: Survival rate (%) Stem cells
I'd appreciate it if you could supply viability at 20 µM values for the items below.
Numbers only; they are read as %.

**Q:** Recall and state the measured viability at 20 µM for C=C1C(=O)O[C@@H]2[C@H]3C(C)=CC[C@@]34O[C@@]4(C)CC[C@@H]12 .
**A:** 89

**Q:** Tell me viability at 20 µM reported for CC1=C2CC[C@@](C)(O)[C@@H]2[C@H]2OC(=O)[C@@H](CN(C)C)[C@@H]2CC1
**A:** 92

**Q:** Please look at this compound and report its viability at 20 µM: C=C1C(=O)O[C@@H]2[C@@H]3[C@@H](CC[C@@]3(C)O)[C@](C)(O)CC[C@@H]12
**A:** 92

**Q:** Please look at this compound and report its viability at 20 µM: C=C1C(=O)O[C@H]2[C@H]1CCC(C)=C1CC[C@@](C)(OC(=O)CCCc3cn(CCCCCCO)nn3)[C@@H]12
**A:** 92

**Q:** Return value of viability at 20 µM for input CN(C)C[C@@H]1C(=O)O[C@H]2[C@H]1CCC1(CC1)[C@@H]1CCC3(CC3)[C@H]21 , no commentary.
**A:** 90

**Q:** Output measured viability at 20 µM for this item: C=C1CC[C@H]2C(=C)CC[C@H]3C(=C)C(=O)O[C@@H]3[C@@H]12
**A:** 88

**Q:** // fetch viability at 20 µM given entry C=C1C(=O)O[C@@H]2[C@@H]3[C@@H](CCC34CC4)C3(CC[C@@H]12)CC3
**A:** 93

====

I'd appreciate it if you could supply viability at 10 µM values for the items below.
# Tested on: cancer stem cells
# protocol.summary: Survival rate of cancer stem cells after test compound is added (flow cytometry, Annexin V-FITC/PI, clinical specimen)
# Assay type: cell-based, patient
# conditions: Homo sapiens, 18 h, Malignant melanoma; 10.0 μM

**Q:** Name the recorded viability at 10 µM of C=C1C(=O)O[C@@H]2[C@@H]3[C@@H](CCC34CC4)C3(CC[C@@H]12)CC3 , assay system cancer stem cells.
**A:** 82%

**Q:** Write down the reported viability at 10 µM (system: cancer stem cells) of C=C1C(=O)O[C@@H]2[C@@H]3[C@@H](CC[C@@]3(C)O)[C@](C)(O)CC[C@@H]12
**A:** 82%

**Q:** Send back cancer stem cells viability at 10 µM of C=C1C(=O)O[C@@H]2[C@@H]3[C@@H](CC[C@@]3(C)O)C(=C)CC[C@@H]12 only.
**A:** 82%

**Q:** Provide measured viability at 10 µM on cancer stem cells for C=C1C(=O)O[C@@H]2[C@H]3C(C)=CC[C@@]34O[C@@]4(C)CC[C@@H]12 please.
**A:** 64%

====

# Tested on: cancer cells
# protocol.summary: Survival rate of cancer cells after test compound is added (flow cytometry, Annexin V-FITC/PI, clinical specimen)
# Assay type: cell-based, patient
# conditions: Homo sapiens, 18 h, Gastrointestinal tumor; 10.0 μM; read-out: Survival rate (%) All cells (Stem cells and ordinary cells)
Mark rule met only for viability at 10 µM values smaller than 70%; exact matches and larger values are rule not met.

**Q:** For this molecule, is viability at 10 µM lower than 70%? CN(C)C[C@@H]1C(=O)O[C@H]2[C@H]1CCC1(CC1)[C@@H]1CCC3(CC3)[C@H]21
**A:** rule not met

**Q:** Here's an entry: C=C1C(=O)O[C@@H]2[C@@H]3[C@@H](CC[C@@]3(C)O)C(=C)CC[C@@H]12 . Is its viability at 10 µM below 70%?
**A:** rule not met

**Q:** Threshold test, viability at 10 µM < 70%: C=C1C(=O)O[C@@H]2[C@@H]3[C@@H](CC[C@@]3(C)O)[C@](C)(O)CC[C@@H]12
**A:** rule not met

**Q:** Lab note: confirm whether the reported viability at 10 µM for this molecule is below 70%, equality not counting. molecule: CC1=C2CC[C@@](C)(O)[C@@H]2[C@H]2OC(=O)[C@@H](CN(C)C)[C@@H]2CC1
**A:** rule not met

**Q:** Lab note: viability at 10 µM threshold 70%. Does this molecule come in strictly under it? C=C1C(=O)O[C@H]2[C@H]1CCC(C)=C1CC[C@@](C)(OC(=O)CCCc3cn(CCCCCCO)nn3)[C@@H]12
**A:** rule not met

**Q:** State whether 70% exceeds viability at 10 µM recorded for C=C1CC[C@H]2C(=C)CC[C@H]3C(=C)C(=O)O[C@@H]3[C@@H]12 .
**A:** rule met
